- Tested target: T1, AAV9
- T1 construct: also called adeno-associated virus serotype 9
- Assay: SPR, AAV on CM5 chip;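 also: surface plasmon resonance with AAV amine-coupled to the chip as ligand, nanobodies injected as analyte over a concentration series, rate constants and affinity fitted from binding curves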
Quantity name: koff (s⁻¹)
Answers are plain numbers, in s⁻¹.

Example cases with answers are listed next.
* A4-041 (VHH) VHH: VQLQESGGGLVQPGGSLRLSCAASGRGFSINTMGWYRQAPGKQRELVATVTRGGSTNYANSVKGRFTISRDNAKNTVYLQMNSLRPEDTAVYYCHVDELRQSSWTTSNLWGQGTQVTVSS | 0.00142
* A4-043 (VHH) VHH: VQLQESGGGLVQPGGSLRLSCAASGRAFSINTMGWYRQAPGKQRELVATVTRDGSTNYAGSVKGRFTISRDNAKNTVYLQMNSLRPEDTAVYYCHVDEVRQSSWTTSNLWGQGTQVTVSS | 4e-05
* A4-035 (VHH) VHH: VQLQESGGGLVQAGGSLRLSCAASGRGFSINTMGWYRQAPGKQRELVAAVTRGGTTNYADSVKGRFTISRDNAKNTVYLQMNSLRPEDTAVYYCHVDEVRQSSWTTSNLWGQGTQVTVSS | 0.0001
* A4-033 (VHH) VHH: VQLQESGGGLVQPGGSLRLSCVASGSSFSINTMGWYRRAPGKQRELVATVTRDGSTNYANSVKGRFTISRDNAKNTVYLQMNSLRPEDTAVYYCHVDEVRQSSWTTSNLWGQGTQVTVSS | 0.00045
* A4-038 (VHH) VHH: VQLQESGGGLVQPGGSLRLSCAASGSHFSINTMGWYRQAPGKQRELVATVTRGGSTNYANSVKGRFTISRDNAKNTVYLQMNSLRPEDTAVYYCHLDEVRQSSWTTSNLWGQGTQVTVSS | 0.0011

For the 3 binders below, give their koff values.
1. A4-028 (VHH) VHH: VQLQESGGGLVQPGGSLRLSCAASGSNFSINTMGWYRQAPGKQRELVATVTRGGDTNYADSVKGRFTISRDNAKNTVYLQMNSLRPEDTAVYYCHVDEIRESSWTTSNLWGQGTQVTVSS
2. A4-046 (VHH) VHH: VQLQESGGGLVQPGGSLRLSCAASGSRFSINTMGWYRQAPGKQRELVATVTRGGSTNYADSVKGRFTISRDNAKNTVYLQMNSLRPEDTAVYYCHVDEVRQSSWTTSNLWGQGTQVTVSS
3. A4-002 (VHH) VHH: VQLQESGGGLVQPGGSLRLSCAASGRSFSINTMGWYRQAPGKQRELVAAVTRGGSTNYAGSVKGRFTISRDNAKNTVYLQMNSLRPEDTAVYYCHIDEVRQSSWTTSNIWGQGTQVTVSS

Result:
9e-05
0.00269
0.011
